System: nutrient protein (lysine)
test_protocol: Effect of pH variation on protein glycation, in vitro, spectrophotometer
measurement_conditions: pH 10
Documented Absorbance at different pH values across a set of compounds
// keep it numeric: no unit symbol after the value

Worked examples, 3 compounds total:
>>> df
                                   compound                        metric_name  recorded_number
0             O=C[C@H](O)[C@H](O)[C@H](O)CO  Absorbance at different pH values             0.79
1        O=C(CO)[C@@H](O)[C@H](O)[C@H](O)CO  Absorbance at different pH values             0.65
2  OC[C@H]1O[C@@H](O[C@H]2[C@H](O)[C@@H](O)C(O)O[C@@H]2CO)[C@H](O)[C@@H](O)[C@H]1O (stereo partly shown)  Absorbance at different pH values             0.22

I have this compound here, `OC[C@H]1O[C@H](O[C@H]2[C@H](O)[C@@H](O)[C@H](O)O[C@@H]2CO)[C@H](O)[C@@H](O)[C@@H]1O` , and I need its recorded Absorbance at different pH values. 0.26

---

Tested on: nutrient protein (lysine)
test_protocol: Effect of temperature on protein glycation, in vitro, spectrophotometer
measurement_conditions: 100 deg C.
metric_name: Absorbance at different temperatures
// keep it numeric: no unit symbol after the value

Worked examples, 3 molecules total:
>>> df
                                   molecule  recorded_number
0             O=C[C@H](O)[C@H](O)[C@H](O)CO             0.59
1  OC[C@H]1O[C@H](O[C@H]2[C@H](O)[C@@H](O)[C@H](O)O[C@@H]2CO)[C@H](O)[C@@H](O)[C@@H]1O             0.22
2        O=C(CO)[C@@H](O)[C@H](O)[C@H](O)CO              0.5

Shifting focus to the molecule that follows.
I have this molecule here, OC[C@H]1O[C@@H](O[C@H]2[C@H](O)[C@@H](O)C(O)O[C@@H]2CO)[C@H](O)[C@@H](O)[C@H]1O (stereo partly shown) , and I need its recorded Absorbance at different temperatures. 0.17

---

System: nutrient protein (lysine)
test_protocol: Effect of temperature on protein glycation, in vitro, spectrophotometer
measurement_conditions: protein glycation, 100 to 60 deg C.
Documented % decrease in AGE formation from 100 to 60 deg C. across a set of compounds
The response must be a number in % with no trailing unit.

Worked examples, 3 compounds total:
In [3]: df
Out[3]:
                                   compound  recorded_number
0  OC[C@H]1O[C@H](O[C@H]2[C@H](O)[C@@H](O)[C@H](O)O[C@@H]2CO)[C@H](O)[C@@H](O)[C@@H]1O             80.0
1             O=C[C@H](O)[C@H](O)[C@H](O)CO             78.1
2  OC[C@H]1O[C@@H](O[C@H]2[C@H](O)[C@@H](O)C(O)O[C@@H]2CO)[C@H](O)[C@@H](O)[C@H]1O (stereo partly shown)             67.9

I have this compound here, `O=C(CO)[C@@H](O)[C@H](O)[C@H](O)CO` , and I need its recorded % decrease in AGE formation from 100 to 60 deg C.. 79.1
